Data credit: ChEMBL document CHEMBL1157877

# Tested on: Neuron
# Test Name: Neuroprotective effect against H202-induced Sprague-Dawley rat neuron injury assessed as early apoptic cells by annexin V-propidium iodide staining by flow cytometry (reference value: 3.09% +/- 1.40%)
# Format: functional
Values of Activity greater than or equal to 50% map to criterion met; values below map to criterion not met.

CCCCCOc1ccc(C(C)(O)/C=C/C2=C(C)CCCC2(C)C)cc1 (stereo unspecified): criterion not met
C[C@]12N[C@H](Cc3ccccc31)c1ccccc12.O=C(O)/C=C\C(=O)O [DIZOCILPINE MALEATE]: criterion not met
COc1ccccc1C(C)(O)/C=C/C1=C(C)CCCC1(C)C (stereo unspecified): criterion met

Check this molecule for Activity at or above 50%: COc1ccc(C(C)(O)/C=C/C2=C(C)CCCC2(C)C)cc1 (stereo unspecified)
criterion not met

Check this molecule for Activity at or above 50%: CC1=CCCC(C)(C)C1/C=C/C(C)(O)c1ccccc1 (stereo unspecified)
criterion met

Check this molecule for Activity at or above 50%: COc1cccc(C(C)(O)/C=C/C2=C(C)CCCC2(C)C)c1 (stereo unspecified)
criterion not met

Check this molecule for Activity at or above 50%: COc1cccc(C(C)(O)/C=C/C2C(C)=CCCC2(C)C)c1 (stereo unspecified)
criterion not met

Check this molecule for Activity at or above 50%: CSc1ccc(C(C)(O)/C=C/C2=C(C)CCCC2(C)C)cc1 (stereo unspecified)
criterion not met
